# assay_comment: Acute toxicity was determined in mice upon peroral administration
# Assay type: organism-based
# assay_conditions: mouse, in vivo, po
// reported LD50 per item

As a guide, the following entries are already answered.
COc1ccc(OCC2SCCN2C(=O)Cn2ccnc2)cc1 (configuration not stated) = > 1000 mg/kg
COc1ccccc1OCC1SCCN1C(=O)CC(=O)NCc1ccncc1.Cl (configuration not stated) = 707 mg/kg
Cl.O=C(O)c1ccc(OCC2SCCN2C(=O)Cn2ccnc2)cc1 (configuration not stated) = > 1000 mg/kg
COc1ccccc1OCC1SCCN1C(=O)CC(=O)O (configuration not stated) = > 1000 mg/kg
CCOCCOCC(=O)N1CCSC1COc1ccccc1OC (configuration not stated) = 916 mg/kg

[ask] Identify measured LD50 corresponding to CCOC(=O)CC(=O)N1CC[S+]([O-])C1COc1ccccc1OC (configuration not stated)
[reply] > 1000 mg/kg

[ask] Determine its reported LD50: O=C(O)[C@@H]1CSC(CCc2ccccc2O)N1 (some centres not stated)
[reply] > 1000 mg/kg

[ask] Provide measured LD50 value, entry: C=CC(=O)N1CCSC1COc1ccccc1OC (configuration not stated)
[reply] 718 mg/kg

[ask] Identify measured LD50 associated with COc1ccccc1OCC1SCCN1C(=O)CC(=O)NCc1cccnc1.O=C(O)/C=C/C(=O)O (configuration not stated)
[reply] 677 mg/kg

[ask] For CCOC(=O)C(C)(C)C(=O)N1CCSC1COc1ccccc1OC (configuration not stated) , write its LD50.
[reply] > 1000 mg/kg

[ask] Please look at this compound and report its LD50: O=C(O)[C@@H]1CSC(COc2ccccc2O)N1 (some centres not stated)
[reply] > 1000 mg/kg

[ask] Please report LD50 for the following compound: COc1ccccc1OCC1N(C(=O)CC(=O)O)CC[S+]1[O-] (configuration not stated)
[reply] > 1000 mg/kg

###

# assay_comment: Acute toxicity was determined in mice upon peroral administration
# Type: organism-based
# assay_conditions: mouse, in vivo, po
Binary call on LD50 with cut-off 800 mg/kg: strictly below means 1, and equality or higher means -1.

Solved cases (5 shown):
COc1ccccc1OCC1SCCN1C(=O)CC(=O)N1CCN(C)CC1 (configuration not stated) = -1
COc1ccccc1OCC1SCCN1C(=O)CN1CCOCC1.Cl (configuration not stated) = 1
CCOC(=O)C(=O)N1CCSC1COc1ccccc1OC (configuration not stated) = -1
O=C(O)CC(=O)N1CCSC1COc1ccccc1O (configuration not stated) = -1
COc1ccccc1OCC1SCCN1C(=O)CN.Cl (configuration not stated) = 1

[ask] Does CCOC(=O)CCC(=O)N1CCSC1COc1ccccc1OC (configuration not stated) have LD50 strictly under 800 mg/kg?
[reply] -1

[ask] A record lists CCN(CC)CCNC(=O)CC(=O)N1CCSC1COc1ccccc1OC (configuration not stated) . Is its LD50 below 800 mg/kg?
[reply] 1

###

# System: Cavia porcellus
# assay_comment: Antitussive activity was evaluated by inhibition of irritant aerosol-induced coughing by (po) administration in guinea pig
# Assay type: functional
attribute_measured: ED50
Put down the number, then write its unit next to it.

CC(=O)SCC(=O)N1CCSC1CCc1ccccc1O (stereo not given) = 61 mg/kg

Here is the next item to consider.
[ask] Give ED50 for COc1ccc2c3c1O[C@H]1[C@@H](O)C=C[C@H]4[C@@H](C2)N(C)CC[C@@]341.COc1ccc2c3c1O[C@H]1[C@@H](O)C=C[C@H]4[C@@H](C2)N(C)CC[C@@]341.O.O=P(O)(O)O.O=P(O)(O)O [CODEINE PHOSPHATE]
[reply] 29 mg/kg

The reported numbers originate from ChEMBL document CHEMBL1128569.
